Attribution: PubChem BioAssay (NCI)

Test system: HS 578T breast
experimentalProtocol: NCI-60 one-dose screen, 48 h
conditionSummary: 10 µM unless noted
Compounds without any hit were thinned out: in the full panel of roughly 83,000, 20% have a hit. Calls of active or inactive are those of the source. Rule for the calls: active = growth percent below 10; inactive = the rest.
Select the correct class. Options are active, inactive and nothing else.

Known results for compounds:
CCc1ccc(NC(=O)N[C@@H](Cc2cccc(F)c2)C(=O)N[C@@H]2C(=O)N3CCC[C@H]3C(=O)N3CCCC[C@H]3C(=O)N[C@@H](CO)C(=O)N3C[C@H](C)C[C@H]3C(=O)O[C@H]2C)c(F)c1 : inactive
Oc1ccccc1-c1nnc(SCc2ccc(O)c3ncccc23)n1-c1ccccc1 : inactive
O=S(=O)(Nc1cc(Cl)c(F)c(Cl)c1)c1ccc(-c2cnc(C3CC3)o2)cc1 : inactive

# input Returns: the outcome recorded for Oc1ccc(CSc2nnc(-c3ccc(Oc4ccccc4)cc3)n2-c2ccccc2)c2cccnc12 in this assay.
# output inactive

# input Returns: the outcome recorded for O=[N+]([O-])c1ccc(-c2nnc(SCc3ccc(O)c4ncccc34)n2-c2ccccc2)cc1 in this assay.
# output active

# input Returns: the outcome recorded for COc1ccc(-c2nc(SCC(C)C)nc(N/N=C\c3cccc([N+](=O)[O-])c3)c2C#N)cc1 in this assay.
# output inactive

# input Returns: the outcome recorded for CC1(C)CC[C@]2(C(=O)N3CCCNCC3)CC[C@]3(C)C(=CC[C@@H]4[C@@]5(C)CCC(=O)C(C)(C)[C@@H]5CC[C@]43C)[C@H]2C1 in this assay.
# output inactive

# input Returns: the outcome recorded for Cn1cc2c(c1)-c1c(sc3nc(-c4ccc(NC(=O)Nc5cc(C(C)(C)C)on5)cc4)cn13)CC2 in this assay.
# output active

# input Returns: the outcome recorded for CNC(=O)c1c(NC(=O)c2ccc(F)cc2F)sc2c1CCC(=O)C2 in this assay.
# output inactive

# input Returns: the outcome recorded for COc1ccc(NC(=O)[C@H](C)N)cc1C(=O)Nc1cccc(-c2cc(=O)c3c(OC)c(OC)c(OC)cc3o2)c1 in this assay.
# output inactive

# input Returns: the outcome recorded for C#CCOc1ccc(C(Nc2cc(Cl)ccc2Cl)c2nnnn2C2CCCCC2)cc1 (stereo unspecified) in this assay.
# output inactive

# input Returns: the outcome recorded for C/C(=C(/C)C1CC1CCN(C(=O)c1ccc([N+](=O)[O-])cc1)S(=O)(=O)c1ccc(C)cc1)C1CCCCC1 (stereo unspecified) in this assay.
# output inactive

# input Returns: the outcome recorded for NC(N)=NS(=O)(=O)c1ccc(N=NC2C(=O)NN(c3ccccc3)C2=O)cc1 (stereo unspecified) in this assay.
# output inactive

# input Returns: the outcome recorded for COc1ccc(-c2nnc(SCc3ccc(O)c4ncccc34)n2-c2ccccc2)cc1 in this assay.
# output inactive

# input Returns: the outcome recorded for O=c1c2ccccc2nc(COc2ccccc2)n1/N=C/C=C/c1ccccc1 in this assay.
# output inactive

# input Returns: the outcome recorded for CCOC(=O)c1nn(-c2ccc(C)cc2)c(=O)c2c(N)c(C#N)c(-c3ccc(OC)cc3)cc12 in this assay.
# output inactive

# input Returns: the outcome recorded for O=C1[C@H]2Cc3c([nH]c4ccccc34)[C@H](c3ccc(Cl)cc3)N2C(=O)CN1C1CCN(Cc2c(Cl)cccc2Cl)CC1 in this assay.
# output inactive

# input Returns: the outcome recorded for CCOC(=O)Nc1cccc(-n2cnc3cc(-c4ccc(O)cc4)ccc32)c1 in this assay.
# output inactive

# input Returns: the outcome recorded for C=C1C(=O)O[C@@H]2C[C@@H](C)CCC(=O)[C@](C)(OC(C)=O)C[C@H](OC(=O)/C(C)=C\C)[C@@H]12 in this assay.
# output inactive

# input Returns: the outcome recorded for c1ccc(-c2c(-c3ccccc3)[n+](Cc3ccc4ccccc4c3)c(-c3ccccc3)n2Cc2ccc3ccccc3c2)cc1 in this assay.
# output active

# input Returns: the outcome recorded for O=C(Nc1cc(Cl)cc(Cl)c1)Nc1nc2ccc([N+](=O)[O-])cc2s1 in this assay.
# output active
